Endpoint summary: log10 IC50, system: Xanthine dehydrogenase/oxidase (Bos taurus), multiple sources combined.
Sequence (P80457 whole entry): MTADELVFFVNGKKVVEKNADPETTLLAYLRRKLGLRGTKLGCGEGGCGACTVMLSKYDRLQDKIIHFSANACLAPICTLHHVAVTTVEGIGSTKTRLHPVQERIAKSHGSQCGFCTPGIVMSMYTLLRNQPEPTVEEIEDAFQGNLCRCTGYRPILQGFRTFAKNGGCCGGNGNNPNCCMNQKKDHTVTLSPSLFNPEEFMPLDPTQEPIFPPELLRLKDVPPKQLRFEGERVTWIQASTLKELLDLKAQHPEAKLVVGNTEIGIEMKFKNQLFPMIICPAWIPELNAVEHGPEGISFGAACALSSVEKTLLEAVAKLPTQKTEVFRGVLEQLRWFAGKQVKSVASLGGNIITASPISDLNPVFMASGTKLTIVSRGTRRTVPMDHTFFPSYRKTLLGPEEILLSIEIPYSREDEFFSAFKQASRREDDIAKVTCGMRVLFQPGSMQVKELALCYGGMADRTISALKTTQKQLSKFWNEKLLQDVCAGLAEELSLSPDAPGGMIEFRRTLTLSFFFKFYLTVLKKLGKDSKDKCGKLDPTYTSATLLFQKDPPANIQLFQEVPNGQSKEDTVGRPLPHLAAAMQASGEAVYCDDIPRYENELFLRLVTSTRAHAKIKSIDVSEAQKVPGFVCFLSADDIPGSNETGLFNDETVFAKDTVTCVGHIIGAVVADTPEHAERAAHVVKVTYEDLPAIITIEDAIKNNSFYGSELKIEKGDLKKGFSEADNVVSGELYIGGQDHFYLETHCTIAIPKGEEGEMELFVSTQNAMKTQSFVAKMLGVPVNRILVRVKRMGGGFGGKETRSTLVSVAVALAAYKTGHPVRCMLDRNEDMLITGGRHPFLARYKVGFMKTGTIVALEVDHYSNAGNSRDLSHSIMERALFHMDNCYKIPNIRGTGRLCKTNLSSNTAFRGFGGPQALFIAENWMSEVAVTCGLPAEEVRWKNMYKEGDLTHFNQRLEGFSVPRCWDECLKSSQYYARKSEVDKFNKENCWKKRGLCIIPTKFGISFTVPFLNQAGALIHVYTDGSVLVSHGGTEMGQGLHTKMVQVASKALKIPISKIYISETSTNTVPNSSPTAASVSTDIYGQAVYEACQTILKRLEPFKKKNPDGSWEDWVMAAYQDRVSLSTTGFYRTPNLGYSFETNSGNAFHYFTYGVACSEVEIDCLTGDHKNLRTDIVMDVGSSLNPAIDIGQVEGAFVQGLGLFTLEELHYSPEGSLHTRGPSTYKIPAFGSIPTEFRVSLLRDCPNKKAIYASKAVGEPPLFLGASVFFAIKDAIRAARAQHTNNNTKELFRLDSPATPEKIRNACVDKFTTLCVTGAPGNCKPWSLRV
Lab note - IC50 converted to log10 from values in nM.

Consider the following illustrative entries.
{"compound": "CC(C)CN(C)c1ccc(-n2cnc(C(=O)O)c2)cc1C#N", "log10 IC50": 1.43}
{"compound": "COC(=O)C1=CO[C@@H](O[C@@H]2O[C@H](CO)[C@@H](O)[C@H](O)[C@H]2O)[C@H]2[C@@H]1CC1OC12CO (some centres not stated)", "log10 IC50": 5.22}
{"compound": "C=C(C)COc1ccc(-c2nc(C)c(C(=O)O)c(=O)[nH]2)cc1C#N", "log10 IC50": 2.75}
{"compound": "c1ccc(-c2cc(-c3n[nH]c(-c4ccncc4)n3)ccn2)cc1", "log10 IC50": 0.83}

Record O=Cc1cc(F)ccc1OCc1cn(Cc2ccccc2)nn1 . Reported log10 IC50: 4.33

For this compound ( COc1ccc(Nc2ncnc3c2C(c2cccc(Cl)c2)C2=C(CCCC2=O)O3)cc1 (configuration not stated) ), measured log10 IC50 is 4.72

What the record says about CC(C)COc1ccc(-c2ncc(C(=O)O)c(=O)[nH]2)cc1C#N : log10 IC50 is 1.78

Entry COc1ccc(Nc2ncnc3c2C(c2ccccc2OC)c2c(c(=O)oc4ccccc24)O3)cc1 (configuration not stated) — recorded log10 IC50 = 4.46

Noted for c1cc(-c2n[nH]c(-c3ccncc3)n2)ccn1 : its log10 IC50 reads 2.23

The reported log10 IC50 of the compound CC(C)COc1ccc(-c2nccc(O)n2)cc1C#N was 1.84
